- Test system: K-562 leukemia
- assay.notes: NCI-60 one-dose screen, 48 h
- experimental.parameters: 10 µM unless noted
The panel holds about 83,000 compounds, 20% with a hit somewhere; the sample as a whole holds those more often. Active and inactive are the calls of the source. How the source made its calls: active means growth percent below 10; inactive means the rest.
// allowed return values: 1.0 for active, 0.0 for inactive

Solved cases below.
Query block: Hi team, can someone confirm the assay call for `O=c1cc(-c2ccccc2)[nH]c2ncc(-c3ccc(F)cc3)n12` ?
Result block: 0.0

Query block: Hi team, can someone confirm the assay call for `Oc1c(CN2CCC(N3CCCCC3)CC2)cc(Cc2cc(CN3CCC(N4CCCCC4)CC3)c(O)c3ncccc23)c2cccnc12` ?
Result block: 1.0

Query block: Hi team, can someone confirm the assay call for `CC1=C2[C@@H](CC1)[C@]1(C)O[C@@](C3CCCCC3)(C[C@H]1OC(=O)CO)[C@H]2OC(=O)/C=C/c1ccccc1` ?
Result block: 0.0

More entries:
Query block: Hi team, can someone confirm the assay call for `Cc1ccc2nc(-c3ccc(C(=O)NNC(=S)Nc4ccccc4)cc3)[nH]c2c1` ?
Result block: 0.0

----------
- System: OVCAR-5 ovarian
- assay.notes: NCI-60 one-dose screen, 48 h
- experimental.parameters: 10 µM unless noted
The panel holds about 83,000 compounds, 20% with a hit somewhere; the sample as a whole holds those more often. Activity calls are given as the source filed them. The calls were made as follows: active = growth percent below 10; inactive = the rest.
// allowed return values: Yes (active), No (inactive)

Solved cases below.
Query block: Hi team, can someone confirm the assay call for `COc1ccc(N2CCC(=S)NC2=S)cc1` ?
Result block: No

Query block: Hi team, can someone confirm the assay call for `C=C1C(=O)O[C@H]2[C@H]1CC/C(COC(=O)NCc1ccc(Cn3c(=O)sn(-c4ccc(C#N)cc4)c3=O)cc1)=C\CC[C@@]1(C)O[C@@H]21` ?
Result block: No

Query block: Hi team, can someone confirm the assay call for `N#C/C(=C\c1ccc(-c2cccc(C(F)(F)F)c2)o1)c1ccccc1` ?
Result block: No

Query block: Hi team, can someone confirm the assay call for `CNC1=CC(=O)c2c(C(=O)OC)c(C)[n+]([O-])c(C)c2C1=O` ?
Result block: No

Query block: Hi team, can someone confirm the assay call for Nc1nc2c(c3ncccc13)C(c1cccc(Cl)c1)Cc1ncccc1-2 (stereo not given) ?
Result block: No

Query block: Hi team, can someone confirm the assay call for `Nc1[nH]c(=S)nc2oc(-c3ccccc3)c(-c3ccccc3)c12` ?
Result block: No

More entries:
Query block: Hi team, can someone confirm the assay call for COC(=O)N1CC(Oc2ccccn2)C2CC1c1ccccc1O2 (stereo not given) ?
Result block: No

Query block: Hi team, can someone confirm the assay call for `CC1=C2[C@@H](CC1)[C@]1(C)O[C@@](c3ccccc3)(C[C@H]1OC(=O)CO)[C@H]2OC(=O)/C=C/c1ccccc1` ?
Result block: No

Query block: Hi team, can someone confirm the assay call for `Cc1ccc(-c2nc(-c3cn(C)c4ncccc34)cs2)cc1` ?
Result block: Yes

Query block: Hi team, can someone confirm the assay call for CC1=C(C(=O)Nc2ccccc2)C(c2ccc3c(c2)OCO3)NC(=S)N1 (stereo not given) ?
Result block: No

----------
- Test system: IGROV1 ovarian
- assay.notes: NCI-60 one-dose screen, 48 h
- experimental.parameters: 10 µM unless noted
This is part of a sample that, as a whole, favours compounds with a hit. Of some 83,000 tested, about 20% had one in any assay. Calls of active or inactive are those of the source. Rule for the calls: active = growth percent below 10; inactive = the rest.
// allowed return values: active, inactive

Solved cases below.
Query block: Hi team, can someone confirm the assay call for `COc1cccc(/C=N/NC(=O)c2ccccc2N2CCCC2)c1O` ?
Result block: active

Query block: Hi team, can someone confirm the assay call for `COc1ccc(Oc2nc(Nc3ccc(N4CCOCC4)cc3)ncc2NC(=O)Nc2cc(OC)cc(OC)c2)cc1` ?
Result block: inactive

Query block: Hi team, can someone confirm the assay call for `Nc1[nH]c(=S)nc2oc(-c3ccccc3)c(-c3ccccc3)c12` ?
Result block: inactive

More entries:
Query block: Hi team, can someone confirm the assay call for C#CC#CC#CC#CC#CC#CC#CC#CCC1OC[C@H](COC(=O)O[C@@H](C(=O)O[C@H]2C[C@@]3(O)[C@@H](OC(=O)c4ccccc4)[C@@H]4[C@]5(OC(C)=O)CO[C@@H]5C[C@H](O)[C@@]4(C)C(=O)[C@H](OC(C)=O)C(=C2C)C3(C)C)[C@@H](NC(=O)c2ccccc2)c2ccccc2)O1 (some centres not stated) ?
Result block: inactive

----------
- System: SN12C renal
- assay.notes: NCI-60 one-dose screen, 48 h (100 = growth as untreated, 0 = no growth, -100 = all killed)
- experimental.parameters: 10 µM unless noted
Compounds without any hit were thinned out: in the full panel of roughly 83,000, 20% have a hit.
Readings of growth for the listed compounds
All answers are understood in %, so give the number only.

Some solved cases for reference:
Query block: Can you look up growth on SN12C renal for `O=C(/C=C/c1cccc(Cl)c1Cl)Nc1ncc(Cc2ccccc2Cl)s1` ?
Result block: 56.9

Query block: Can you look up growth on SN12C renal for `O=C(/C=C/c1ccc(Oc2ccc(Br)cc2)cc1)c1ccc(Br)cc1` ?
Result block: 97.2

Query block: Can you look up growth on SN12C renal for `NNCCc1ccc(NC(=O)CCCc2ccc(C(=O)Nc3ccccc3N)cc2)cc1` ?
Result block: 80.1

Query block: Can you look up growth on SN12C renal for `O=C(c1c[nH]c2ccccc12)c1n[nH]c(=S)n1-c1cccc(Br)c1` ?
Result block: 96.3

Query block: Can you look up growth on SN12C renal for `COc1ccc(Cn2cc(C(=O)N=Nc3c(O)[nH]c4c(C)cccc34)nn2)cc1` ?
Result block: 62.1

More entries:
Query block: Can you look up growth on SN12C renal for `Cc1ccc(S(=O)(=O)c2nc(-c3ccccc3)oc2Sc2nc3ccccc3s2)cc1` ?
Result block: 61.4

Query block: Can you look up growth on SN12C renal for `CSc1nn2c(-c3ccc4ccccc4c3)ccnc2c1C#N` ?
Result block: 23.4

Query block: Can you look up growth on SN12C renal for `COc1cc(-c2nc3c(ncc4ccc(=O)n(-c5ccccc5)c43)s2)cc(OC)c1OC` ?
Result block: 73.9

Query block: Can you look up growth on SN12C renal for `O=C1/C=C/[C@@H](O)[C@@H]2C[C@@H](O)C[C@H]2/C=C/CCC[C@@H](O)CCO1` ?
Result block: 106

Query block: Can you look up growth on SN12C renal for `COC(=O)c1cc(Br)ccc1O` ?
Result block: 99.5

----------
- Tested on: A549/ATCC NSCLC
- assay.notes: NCI-60 one-dose screen, 48 h (100 = growth as untreated, 0 = no growth, -100 = all killed)
- experimental.parameters: 10 µM unless noted
This is part of a sample that, as a whole, favours compounds with a hit. Of some 83,000 tested, about 20% had one in any assay.
Readings of growth for the listed compounds
All answers are understood in %, so give the number only.

Query block: Can you look up growth on A549/ATCC NSCLC for `COc1cc(C(=O)c2c(-c3ccccc3)oc3c(OC)cccc23)cc(OC)c1OC` ?
Result block: 17

Query block: Can you look up growth on A549/ATCC NSCLC for O=P(O)(O)OCC1OC(n2cnc3c(NCc4ccco4)ncnc32)C(O)C1O (stereo not given) ?
Result block: 7.15

Query block: Can you look up growth on A549/ATCC NSCLC for `O=C(Cc1ccc(NC(=O)c2cccc(Cl)c2)cc1)NCc1ccccc1` ?
Result block: 43.9

Query block: Can you look up growth on A549/ATCC NSCLC for C/C=C(\C)C(=O)N[C@H]1C(O)C[C@]2(C)C3CC[C@@]4(C)C(CC[C@@H]4C(C)N(C)C)C3CCC2C1O (stereo not given in full) ?
Result block: 81.6

Query block: Can you look up growth on A549/ATCC NSCLC for CCCCCCCCCCCCCCCCCC1=NC(C)(C)CN1CC(C)O (stereo not given) ?
Result block: 19.1

Query block: Can you look up growth on A549/ATCC NSCLC for CCN1C(=O)N(CC)C2C1N=C(SCc1ccc(Cl)cc1)N2/N=C/C=C/c1ccccc1OC (stereo not given) ?
Result block: 53.7

Query block: Can you look up growth on A549/ATCC NSCLC for `Cc1ccc(Cl)cc1NC(=O)c1sc2nc3c(cc2c1N)C(=O)CCC3` ?
Result block: 53.9

Query block: Can you look up growth on A549/ATCC NSCLC for `Fc1cc(Nc2ccc3c(OCCCN4CCOCC4)cccc3n2)ccc1Cl` ?
Result block: 25.7

Query block: Can you look up growth on A549/ATCC NSCLC for `N#Cc1cncc(-c2ccc3ncnc(Nc4cccc(Cl)c4)c3c2)c1` ?
Result block: 62.3

// next item, growth requested
Query block: Can you look up growth on A549/ATCC NSCLC for `Cc1c(CN)cc(-c2ccc(Cl)cc2)n1-c1ccccc1` ?
Result block: 75.2

The measured values listed here are drawn from PubChem BioAssay (NCI).
